Molecular target: T1, Human CD3eg linker (human)
T1 construct: single-chain construct; also called recombinant human CD3
T1 chain: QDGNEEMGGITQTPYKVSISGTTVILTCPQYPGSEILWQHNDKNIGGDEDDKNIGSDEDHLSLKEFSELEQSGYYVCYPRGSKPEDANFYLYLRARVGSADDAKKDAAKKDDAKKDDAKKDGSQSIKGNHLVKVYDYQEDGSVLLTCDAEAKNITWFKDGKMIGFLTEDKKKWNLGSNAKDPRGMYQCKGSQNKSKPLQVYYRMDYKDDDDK
Assay: SPR, vs unmutated H183/L072
EXPERIMENTAL_READOUT: fold change of affinity (fold)
Expressed in fold, but write only the number.

Please report the recorded fold change of affinity for dBBDu183H V63S/dBBDu072L (antibody, name in Kabat numbering, V domains shown) VH: QVQLVESGGGLVQPGRSLRLSCAASGFTFSNAWMHWVRQAPGKGLEWVAQIKDKGNAYAAYYAPSSKGRFTISRDDSKNSIYLQMNSLKTEDTAVYYCHYVHYASASTVLPAFGVDAWGQGTTVTVSS VL: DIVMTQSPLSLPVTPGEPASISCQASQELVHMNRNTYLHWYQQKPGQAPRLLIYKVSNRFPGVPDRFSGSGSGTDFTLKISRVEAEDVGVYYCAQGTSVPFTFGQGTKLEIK .
1.1

// repeat for dBBDu183H H96R/dBBDu072L (antibody, name in Kabat numbering, V domains shown) VH: QVQLVESGGGLVQPGRSLRLSCAASGFTFSNAWMHWVRQAPGKGLEWVAQIKDKGNAYAAYYAPSVKGRFTISRDDSKNSIYLQMNSLKTEDTAVYYCHYVRYASASTVLPAFGVDAWGQGTTVTVSS VL: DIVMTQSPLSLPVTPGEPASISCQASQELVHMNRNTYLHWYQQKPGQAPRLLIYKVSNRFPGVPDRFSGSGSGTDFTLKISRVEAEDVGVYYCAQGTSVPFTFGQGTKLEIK and report
0.3

// repeat for dBBDu183H L100dY/dBBDu072L (antibody, name in Kabat numbering, V domains shown) VH: QVQLVESGGGLVQPGRSLRLSCAASGFTFSNAWMHWVRQAPGKGLEWVAQIKDKGNAYAAYYAPSVKGRFTISRDDSKNSIYLQMNSLKTEDTAVYYCHYVHYASASTVYPAFGVDAWGQGTTVTVSS VL: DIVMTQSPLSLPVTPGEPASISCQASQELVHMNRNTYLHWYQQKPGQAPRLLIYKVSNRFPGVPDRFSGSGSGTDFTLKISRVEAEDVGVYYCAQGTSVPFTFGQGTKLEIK and report
1.4
